Items are presented alongside their recorded melting point.
assay.metric: melting point

> print(dat)
                                    compound      obs.value
 1   COC1=C(OC)C(=O)C(CCCCC#CCCCCO)=C(C)C1=O    52 to 53 °C
 2      O=C(Nc1ccccc1)N(Cc1ccc(F)cc1)C1CCCC1  120 to 121 °C
 3  O=C(Nc1cccnc1)N1CCN(c2nccc(-c3cc(F)ccc3F)n2)CC1  270 to 271 °C
 4  COC(=O)c1cccc(-c2nc(COc3ccc(CO)cc3OC)c(C)o2)c1  141 to 142 °C
 5  CCOC(=O)c1cccc(-c2nc(-c3cc(C)oc3C)cs2)c1  100 to 101 °C
 6  CCCCCCCCCCCCCC(O)c1nc2ncccc2o1 (configuration not stated)    52 to 54 °C
 7  Cc1nc2c(OCc3c(Cl)ccc(N(C)C(=O)Oc4ccc([N+](=O)[O-])cc4)c3Cl)cccn2c1Br  229 to 230 °C
 8  CC(=O)NC1CCCN(c2c(F)cc3c(=O)c(C(=O)O)cn(C4CC4)c3c2F)C1 (configuration not stated)  280 to 282 °C
 9  CCCc1c(OCCCOc2ccc(N)cc2)ccc2c1OC(CCC(=O)OCC)(CCC(=O)OCC)CC2=O  126 to 127 °C
10  O=CNCc1ccc2[nH]cc(CCCN3C(=O)c4ccccc4C3=O)c2c1  150 to 152 °C
11  O=C(Nc1ccc(S(=O)(=O)c2ccc([N+](=O)[O-])cc2)cc1)N[C@@H](Cc1ccc(NC(=O)c2c(Cl)cccc2Cl)cc1)C(=O)O         223 °C
12      COCOc1cccc2c(=O)[nH]c(CCCCN(C)C)cc12  109 to 111 °C

* * *

Listed compounds paired with reported melting point
assay.metric: melting point

> print(dat)
                                    compound   assay.metric      obs.value
 1  CNC(=S)C1=CC(C)(CF)Oc2ccc([N+](=O)[O-])cc21 (configuration not stated)  melting point  141 to 144 °C
 2  COc1cccc(CCOc2ccc(C(=O)N/C(=C\c3ccc(Cl)cc3)C(=O)NCCO)cc2)c1  melting point    54 to 56 °C
 3  CC(/C=C/C(=O)N1CCCc2cc3c(cc21)C(C)(C)CCC3(C)C)=C\C(=O)O  melting point  225 to 227 °C
 4  COC(=O)COc1cc2c(c3c1cc(C)n3Cc1ccccc1)CCC2  melting point  135 to 138 °C
 5  CC(C)n1nc(-c2c(-c3ccccc3)nc(N)[nH]c2=O)ccc1=O  melting point  291 to 295 °C
 6                        CSc1c[nH]c2ncccc12  melting point  115 to 116 °C
 7  CC(C)n1ncnc1COc1nn2c(-c3cc(F)ccc3F)nncc2c1C(C)(C)C  melting point         163 °C
 8  O=C(O)c1c(Br)c(Br)c([N+](=O)[O-])c2c1OCCO2  melting point         238 °C
 9        Cc1cc2c(N3CCc4ccc(Cl)cc43)ncnc2cn1  melting point  232 to 234 °C
10  CC1CCN(c2cc(C(C)(C)C)on2)C1=O (configuration not stated)  melting point    89 to 90 °C
11  CCn1cc(CN(C(=O)C2CCCc3ccc(C)cc32)c2ccc(C(C)C)cc2)cn1 (configuration not stated)  melting point  110 to 112 °C
12         CCN1c2ncc(N)cc2C(=O)N(C)c2cccnc21  melting point  189 to 191 °C
13  O=C(NC(Cc1ccccc1)C(=O)O)OCc1cc2cc(-c3cncnc3)ccc2o1 (configuration not stated)  melting point         192 °C
14                 Nc1ncc(-c2cccc3ccccc23)o1  melting point  155 to 162 °C
15  COC(=O)c1cc(Cl)c2c(c1Cl)OC(c1ccccc1)(c1ccccc1)O2  melting point    69 to 70 °C
16  CC(=NOCc1ccccc1-n1c(Cl)nn(C)c1=O)c1cccc(C(F)(F)F)c1  melting point    95 to 97 °C
17  CCCCS(=O)c1ccc(C#N)nc1 (configuration not stated)  melting point    54 to 55 °C
18      CC(C)(C)Nc1c(NCc2ccc(F)cc2)c(=O)c1=O  melting point  296 to 298 °C
19   CC(C)(C)OC(=O)NCCOc1noc2ccc(F)c(C#N)c12  melting point  116 to 117 °C
20          COc1c(C)cc(Cc2ccc3c(c2)OCO3)cc1C  melting point          49 °C
21  COC=C(C(=O)OC)c1ccccc1CON=C(C)c1nn(C)c2cc(OCC3CC3(Cl)Cl)c(F)cc12 (configuration not stated)  melting point  138 to 140 °C
22  C=CCc1cc(C)c2c(c1O)C(C)(C)C(=O)N2Cc1ccccc1  melting point  161 to 162 °C
23  CCCCCN(C(=O)Oc1ccc(C(=O)O)cc1)c1ccc2c(c1)C(C)(C)CCC2(C)C  melting point  100 to 102 °C
24              CC(=O)Nc1ccccc1N1CCc2ccccc21  melting point  125 to 128 °C
25  CCOC(=O)c1nnc2n1-c1sc(CC)cc1C(c1ccccc1Cl)=NC2  melting point  138 to 140 °C
26                    COc1nc(C#N)c(C#N)[nH]1  melting point  137 to 138 °C
27  CC1(C)Oc2ccc(C#N)cc2C(OC2=CC(=O)CC2)C1(C)O (configuration not stated)  melting point  204 to 206 °C
